Data origin: patent US20260242735A1

Assayed System: human CD33 S158A (human, UniProt P20138 18-364)
Sequence (P20138 18-364 S158A limits assumed): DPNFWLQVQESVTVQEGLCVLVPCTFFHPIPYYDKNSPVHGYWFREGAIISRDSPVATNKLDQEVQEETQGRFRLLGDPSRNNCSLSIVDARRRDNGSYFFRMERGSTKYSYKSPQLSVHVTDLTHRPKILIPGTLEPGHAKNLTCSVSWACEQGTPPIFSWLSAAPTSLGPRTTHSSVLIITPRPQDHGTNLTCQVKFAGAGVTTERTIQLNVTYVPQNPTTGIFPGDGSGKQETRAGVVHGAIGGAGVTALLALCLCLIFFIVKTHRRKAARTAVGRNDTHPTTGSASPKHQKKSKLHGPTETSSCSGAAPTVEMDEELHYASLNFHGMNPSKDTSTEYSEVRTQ
Assay Summary: flow cytometry on HEK293-T, alanine scan
Recorded Endpoint: Mean % WT Binding (% WT binding)
Kindly answer with a numeric value in % WT binding, unit omitted.

Prompt line: Fill in: Mean % WT Binding of Refmab #1 (antibody, V domains shown, The alanine scan used IgG or Fab; also called hP67.6) VH: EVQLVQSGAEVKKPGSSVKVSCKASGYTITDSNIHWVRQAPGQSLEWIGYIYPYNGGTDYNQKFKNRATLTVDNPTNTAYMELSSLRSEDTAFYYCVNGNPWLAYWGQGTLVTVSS VL: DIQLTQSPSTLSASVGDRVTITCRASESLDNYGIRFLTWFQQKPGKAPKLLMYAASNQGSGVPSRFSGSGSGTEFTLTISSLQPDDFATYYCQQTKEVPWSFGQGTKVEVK is ___
Response line: 87.1
